Protocol summary: total protein half-life in vivo (active degradation + dilution); higher = more stable protein
Condition parameters: E. coli NCM3722 delta-clpP; growth: N-lim chemostat; doubling time 6 h
Attribute measured: total protein half-life in vivo

MKPRQRQAAILEYLQKQGKCSVEELAQYFDTTGTTIRKDLVILEHAGTVIRTYGGVVLNKEESDPPIDHKTLINTHKKELIAEAAVSFIHDGDSIILDAGSTVLQMVPLLSRFNNITVMTNSLHIVNALSELDNEQTILMPGGTFRKKSASFHGQLAENAFEHFTFDKLFMGTDGIDLNAGVTTFNEVYTVSKAMCNAAREVILMADSSKFGRKSPNVVCSLESVDKLITDAGIDPAFRQALEEKGIDVIITGESNE: 6.55 h
MNMKLKTLFAAAFAVVGFCSTASAVTYPLPTDGSRLVGQNQVITIPEGNTQPLEYFAAEYQMGLSNMMEANPGVDTFLPKGGTVLNIPQQLILPDTVHEGIVINSAEMRLYYYPKGTNTVIVLPIGIGQLGKDTPINWTTKVERKKAGPTWTPTAKMHAEYRAAGEPLPAVVPAGPDNPMGLYALYIGRLYAIHGTNANFGIGLRVSHGCVRLRNEDIKFLFEKVPVGTRVQFIDEPVKATTEPDGSRYIEVHNPLSTTEAQFEGQEIVPITLTKSVQTVTGQPDVDQVVLDEAIKNRSGMPVRLN [P0AAX8]: 5.74 h

---

Protocol summary: total protein half-life in vivo (active degradation + dilution); higher = more stable protein
Condition parameters: wild type E. coli NCM3722; growth: C-lim chemostat; doubling time 12 h
Attribute measured: total protein half-life in vivo (h)

MPKLILASTSPWRRALLEKLQISFECAAPEVDETPRSDESPRQLVLRLAQEKAQSLASRYPDHLIIGSDQVCVLDGEITGKPLTEENARLQLRKASGNIVTFYTGLALFNSANGHLQTEVEPFDVHFRHLSEAEIDNYVRKEHPLHCAGSFKSEGFGITLFERLEGRDPNTLVGLPLIALCQMLRREGKNPLMG [P0A729]: 8.34
MNKHTEHDTREHLLATGEQLCLQRGFTGMGLSELLKTAEVPKGSFYHYFRSKEAFGVAMLERHYAAYHQRLTELLQSGEGNYRDRILAYYQQTLNQFCQHGTISGCLTVKLSAEVCDLSEDMRSAMDKGARGVIALLSQALENGRENHCLTFCGEPLQQAQVLYALWLGANLQAKISRSFEPLENALAHVKNIIATPAV: 11.7
MKKIGVILSGCGVYDGSEIHEAVLTLLAISRSGAQAVCFAPDKQQVDVINHLTGEAMTETRNVLIEAARITRGEIRPLAQADAAELDALIVPGGFGAAKNLSNFASLGSECTVDRELKALAQAMHQAGKPLGFMCIAPAMLPKIFDFPLRLTIGTDIDTAEVLEEMGAEHVPCPVDDIVVDEDNKIVTTPAYMLAQNIAEAASGIDKLVSRVLVLAE [P0ABU5]: 10.8

---

Protocol summary: total protein half-life in vivo (active degradation + dilution); higher = more stable protein
Condition parameters: wild type E. coli NCM3722; growth: N-lim chemostat; doubling time 12 h
# key: entry, value: total protein half-life in vivo
Attribute measured: total protein half-life in vivo (h)

MSETAKKVIVGMSGGVDSSVSAWLLQQQGYQVEGLFMKNWEEDDGEEYCTAAADLADAQAVCDKLGIELHTVNFAAEYWDNVFELFLAEYKAGRTPNPDILCNKEIKFKAFLEFAAEDLGADYIATGHYVRRADVDGKSRLLRGLDSNKDQSYFLYTLSHEQIAQSLFPVGELEKPQVRKIAEDLGLVTAKKKDSTGICFIGERKFREFLGRYLPAQPGKIITVDGDEIGEHQGLMYHTLGQRKGLGIGGTKEGTEEPWYVVDKDVENNILVVAQGHEHPRLMSVGLIAQQLHWVDREPFTGTMRCTVKTRYRQTDIPCTVKALDDDRIEVIFDEPVAAVTPGQSAVFYNGEVCLGGGIIEQRLPLPV: 8.69
MTIHKKGQAHWEGDIKRGKGTVSTESGVLNQQPYGFNTRFEGEKGTNPEELIGAAHAACFSMALSLMLGEAGFTPTSIDTTADVSLDKVDAGFAITKIALKSEVAVPGIDASTFDGIIQKAKAGCPVSQVLKAEITLDYQLKS [P0C0L2]: 9.59
MKLTLKNLSMAIMMSTIVMGSSAMAADSNEKIVIAHRGASGYLPEHTLPAKAMAYAQGADYLEQDLVMTKDDNLVVLHDHYLDRVTDVADRFPDRARKDGRYYAIDFTLDEIKSLKFTEGFDIENGKKVQTYPGRFPMGKSDFRVHTFEEEIEFVQGLNHSTGKNIGIYPEIKAPWFHHQEGKDIAAKTLEVLKKYGYTGKDDKVYLQCFDADELKRIKNELEPKMGMELNLVQLIAYTDWNETQQKQPDGSWVNYNYDWMFKPGAMKQVAEYADGIGPDYHMLIEETSQPGNIKLTGMVQDAQQNKLVVHPYTVRSDKLPEYTPDVNQLYDALYNKAGVNGLFTDFPDKAVKFLNKE: 10.9
MFILWYSASSTFGKDSDIVMGVRAQQKEKTRRSLVEAAFSQLSAERSFASLSLREVAREAGIAPTSFYRHFRDVDELGLTMVDESGLMLRQLMRQARQRIAKGGSVIRTSVSTFMEFIGNNPNAFRLLLRERSGTSAAFRAAVAREIQHFIAELADYLELENHMPRAFTEAQAEAMVTIVFSAGAEALDVGVEQRRQLEERLVLQLRMISKGAYYWYRREQEKTAIIPGNVKDE [P0ACU5]: 10.4
MIDYTAAGFTLLQGAHLYAPEDRGICDVLVANGKIIAVASNIPSDIVPNCTVVDLSGQILCPGFIDQHVHLIGGGGEAGPTTRTPEVALSRLTEAGVTSVVGLLGTDSISRHPESLLAKTRALNEEGISAWMLTGAYHVPSRTITGSVEKDVAIIDRVIGVKCAISDHRSAAPDVYHLANMAAESRVGGLLGGKPGVTVFHMGDSKKALQPIYDLLENCDVPISKLLPTHVNRNVPLFEQALEFARKGGTIDITSSIDEPVAPAEGIARAVQAGIPLARVTLSSDGNGSQPFFDDEGNLTHIGVAGFETLLETVQVLVKDYDFSISDALRPLTSSVAGFLNLTGKGEILPGNDADLLVMTPELRIEQVYARGKLMVKDGKACVKGTFETA: 9.01
